tested system: hα7-wt nAChR (Homo sapiens, UniProt P36544)
Sequence (P36544 23-502): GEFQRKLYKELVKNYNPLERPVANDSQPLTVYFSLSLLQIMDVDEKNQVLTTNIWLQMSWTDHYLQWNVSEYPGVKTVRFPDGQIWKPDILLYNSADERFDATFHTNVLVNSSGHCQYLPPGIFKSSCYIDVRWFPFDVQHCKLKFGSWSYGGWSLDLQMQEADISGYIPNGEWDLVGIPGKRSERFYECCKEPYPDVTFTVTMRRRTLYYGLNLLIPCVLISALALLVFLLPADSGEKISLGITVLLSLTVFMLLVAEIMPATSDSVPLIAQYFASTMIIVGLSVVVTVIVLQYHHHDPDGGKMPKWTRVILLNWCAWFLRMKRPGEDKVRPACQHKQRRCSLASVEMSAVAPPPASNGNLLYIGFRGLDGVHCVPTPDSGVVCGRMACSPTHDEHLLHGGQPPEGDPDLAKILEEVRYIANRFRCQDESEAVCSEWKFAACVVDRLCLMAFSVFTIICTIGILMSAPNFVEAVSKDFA
measurement notes: Ca2+ flux imaging (FDSS) (Protocol B), potentiation of the choline response
study conditions: Ca2+ assay as described in D.1; "<5" = activity did not reach a top plateau at maximal concentration
pEC50: −log10 of the molar value.
Short version: pEC50 at least 6 is 1, less is 0.

compound	answer label
COc1cccc(-c2cc(Nc3ccc(F)c(F)c3)nn2CCC(=O)N(C)C)c1Cl [compound 11]	1
Cc1cc(-c2cc(Nc3cccc(OC(F)(F)F)c3)nn2CC(=O)NC2CC2)cc(C)n1 [compound 147]	1
Cc1cc(-c2cc(Nc3ccc(F)c(C(F)(F)F)c3)nn2CCC(=O)N(C)C)cc(C)n1 [compound 161]	1
CCNC(=O)Cn1nc(Nc2cccc(C(F)(F)F)c2)cc1-c1cc(C)nc(C)c1 [compound 155]	1
Cc1cc(-c2cc(Nc3ccc(F)c(C(F)(F)F)c3)nn2CC(=O)NC2CC2)cc(C)n1 [compound 159]	1
CCOC(=O)Cn1nc(Nc2ccc(F)c(F)c2)cc1-c1ccc2c(c1)OCCO2 [compound 10]	1
CCNC(=O)Cn1nc(Nc2cccc(C(F)(F)F)c2)cc1-c1ccnc(C)c1 [compound 36]	0
CCNC(=O)Cn1nc(Nc2ccc(F)c(C(F)(F)F)c2)cc1-c1ccnc(C)c1 [compound 38]	1
COc1cccc(-c2cc(Nc3ccc(F)c(F)c3)nn2CCC(=O)N(C)C)c1 [compound 103]	1
CCNC(=O)Cn1nc(Nc2cc(Cl)cc(OC)c2)cc1-c1ccnc(C)c1 [compound 108]	0
CCNc1cc(-c2cc(Nc3cc(OC)cc(C(F)(F)F)c3)nn2C[C@H](C)O)ccn1 [compound 63]	0
CNC(=O)Cn1nc(Nc2cc(OC)cc(C(F)(F)F)c2)cc1-c1cc(C)nc(C)c1 [compound 105]	0
